Data provenance: patent US12344616B2

measurement.description: Dog screening IV/PO pharmacokinetics
Format: in vivo
condition.parameters: male, plasma, mean residence time, IV/PO procedure
measured.attribute: MRT (h)

Here's what some known entries look like.
COC(=O)Nc1ccc2c(c1)NC(=O)C(C)(C)CCC[C@H](c1ccc(-c3cc(F)ccc3-n3cc(C(F)(F)F)cn3)c[n+]1[O-])c1nc-2c(C)[nH]1 [Example 2] = 11
COC(=O)Nc1ccc2c(c1)NC(=O)C(C)(C)CCC[C@H](c1ccc(-c3cc(Cl)ccc3-n3cc(C(F)F)cn3)c[n+]1[O-])c1nc-2c(C)[nH]1 [Example 4] = 8.7
COC(=O)Nc1ccc2c(c1)NC(=O)C(C)(C)CCC[C@H](c1ccc(-c3c(-n4cc(C(F)(F)F)cn4)ccc(F)c3F)c[n+]1[O-])c1nc-2c(C)[nH]1 [Example 1] = 10

I = COC(=O)Nc1ccc2c(c1)NC(=O)C(C)(C)CCC[C@H](c1ccc(-c3cc(Cl)cnc3OC(F)F)c[n+]1[O-])c1nc-2c(C)[nH]1 [Example 6]
II = COC(=O)Nc1ccc2c(c1)NC(=O)C(C)(C)CCC[C@H](c1ccc(-c3cc(F)ccc3-c3cnn(C(F)(F)F)c3)c[n+]1[O-])c1nc-2c(C)[nH]1 [Example 5]
Task for the reader: decide whether I or II has the larger MRT. Field: selected label. Fill in the label of the entry you choose.
I

* * *

measured.on: human tissue kallikrein (Homo sapiens (Human), UniProt P06870)
Sequence (P06870 25-262): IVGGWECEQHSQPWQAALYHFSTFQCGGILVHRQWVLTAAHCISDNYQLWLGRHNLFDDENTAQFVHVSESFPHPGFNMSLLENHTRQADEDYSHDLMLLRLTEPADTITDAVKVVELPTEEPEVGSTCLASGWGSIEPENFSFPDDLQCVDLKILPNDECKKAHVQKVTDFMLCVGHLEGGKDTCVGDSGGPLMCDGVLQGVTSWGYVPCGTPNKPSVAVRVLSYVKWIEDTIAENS
Item-by-item account of IC50

COC(=O)Nc1ccc2c(c1)NC(=O)C(C)(C)CCC[C@H](c1ccc(-c3cc(F)ccc3-n3cc(C(F)(F)F)cn3)c[n+]1[O-])c1nc-2c(C)[nH]1 = 90 µM
COC(=O)Nc1ccc2c(c1)NC(=O)C(C)(C)CCC[C@H](c1ccc(-c3c(-n4cc(C(F)(F)F)cn4)ccc(F)c3F)c[n+]1[O-])c1nc-2c(C)[nH]1 = > 167 µM

Next item in the queue.
Noted for COC(=O)Nc1ccc2c(c1)NC(=O)C(C)(C)CCC[C@H](c1ccc(-c3cc(Cl)ccc3-n3cc(C(F)(F)F)cn3)c[n+]1[O-])c1nc-2c(C)[nH]1 : its IC50 reads > 167 µM

* * *

measurement.description: Dog cassette IV pharmacokinetics
Assay type: in vivo
condition.parameters: male, plasma, mean residence time, cassette IV procedure
measured.attribute: MRT (h)
The figure you give is taken to be in h; do not add the unit.

For this compound ( COC(=O)Nc1ccc2c(c1)NC(=O)C(C)(C)CCC[C@H](c1ccc(-c3cc(Cl)ccc3-n3cc(C(F)(F)F)cn3)c[n+]1[O-])c1nc-2c(C)[nH]1 ), measured MRT is 10

* * *

measurement.description: Rat screening IV/PO pharmacokinetics
Format: in vivo
condition.parameters: male, plasma, mean residence time, IV/PO procedure
Procedure: Plasma pharmacokinetic parameters for clearance, volume of distribution, half-life, mean residence time (MRT) and oral bioavailability (% F)—were determined in rats from oral administration and IV administration studies. 4 male rats, typically weighing 225-260 gram, were fasted overnight prior to dosing. […] Plasma samples were extracted using protein precipitation and analyzed by liquid chromatography separation followed by mass spec detection (LCMS/MS), using a standard curve for each compound. […]
measured.attribute: MRT (h)

COC(=O)Nc1ccc2c(c1)NC(=O)C(C)(C)CCC[C@H](c1ccc(-c3cc(F)ccc3-c3cnn(C(F)(F)F)c3)c[n+]1[O-])c1nc-2c(C)[nH]1 [Example 5] = 4.5
COC(=O)Nc1ccc2c(c1)NC(=O)C(C)(C)CCC[C@H](c1ccc(-c3cc(F)ccc3-n3cc(C(F)(F)F)cn3)c[n+]1[O-])c1nc-2c(C)[nH]1 [Example 2] = 5.7
COC(=O)Nc1ccc2c(c1)NC(=O)C(C)(C)CCC[C@H](c1ccc(-c3c(-n4cc(C(F)(F)F)cn4)ccc(F)c3F)c[n+]1[O-])c1nc-2c(C)[nH]1 [Example 1] = 5.8

I = COC(=O)Nc1ccc2c(c1)NC(=O)C(C)(C)CCC[C@H](c1ccc(-c3cc(Cl)cnc3OC(F)F)c[n+]1[O-])c1nc-2c(C)[nH]1 [Example 6]
II = COC(=O)Nc1ccc2c(c1)NC(=O)C(C)(C)CCC[C@H](c1ccc(-c3cc(Cl)ccc3-n3cc(C(F)F)cn3)c[n+]1[O-])c1nc-2c(C)[nH]1 [Example 4]
III = COC(=O)Nc1ccc2c(c1)NC(=O)C(C)(C)CCC[C@H](c1ccc(-c3cc(Cl)ccc3-n3cc(C(F)(F)F)cn3)c[n+]1[O-])c1nc-2c(C)[nH]1 [Example 3]
Arrange items by their MRT values in increasing order. Labels, requested order.
II, I, III
(II: 2.7 h, I: 5.6 h, III: 11 h)

* * *

measured.on: Human Norepinephrine Transporter (NET) (Homo sapiens (Human), UniProt P23975)
Sequence (P23975 whole entry): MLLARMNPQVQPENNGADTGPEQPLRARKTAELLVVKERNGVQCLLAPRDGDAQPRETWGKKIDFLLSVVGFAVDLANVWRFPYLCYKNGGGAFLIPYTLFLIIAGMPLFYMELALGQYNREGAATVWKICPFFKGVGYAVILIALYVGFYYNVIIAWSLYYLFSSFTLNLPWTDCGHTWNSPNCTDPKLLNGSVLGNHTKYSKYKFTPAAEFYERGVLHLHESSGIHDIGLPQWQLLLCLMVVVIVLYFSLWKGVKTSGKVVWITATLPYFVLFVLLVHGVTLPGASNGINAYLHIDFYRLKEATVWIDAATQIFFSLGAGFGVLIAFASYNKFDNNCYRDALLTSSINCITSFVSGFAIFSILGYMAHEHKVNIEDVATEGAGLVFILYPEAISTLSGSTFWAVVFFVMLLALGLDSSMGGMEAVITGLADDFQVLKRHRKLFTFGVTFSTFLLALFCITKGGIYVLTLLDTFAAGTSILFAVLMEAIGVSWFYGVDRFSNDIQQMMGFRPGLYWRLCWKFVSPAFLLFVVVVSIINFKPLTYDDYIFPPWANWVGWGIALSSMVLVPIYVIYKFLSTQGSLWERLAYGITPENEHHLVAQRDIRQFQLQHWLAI
measurement.description: Norepinephrine Transporter functional antagonist uptake assay
condition.parameters: [3H]Norepinephrine uptake, MDCK cells expressing human recombinant NET
measured.attribute: IC50

Example cases with answers are listed next.
COC(=O)Nc1ccc2c(c1)NC(=O)C(C)(C)CCC[C@H](c1ccc(-c3cc(F)ccc3-c3cnn(C(F)(F)F)c3)c[n+]1[O-])c1nc-2c(C)[nH]1 = > 10 µM
COC(=O)Nc1ccc2c(c1)NC(=O)C(C)(C)CCC[C@H](c1ccc(-c3cc(Cl)ccc3-n3cc(C(F)(F)F)cn3)c[n+]1[O-])c1nc-2c(C)[nH]1 = > 10 µM
COC(=O)Nc1ccc2c(c1)NC(=O)C(C)(C)CCC[C@H](c1ccc(-c3c(-n4cc(C(F)(F)F)cn4)ccc(F)c3F)c[n+]1[O-])c1nc-2c(C)[nH]1 = > 10 µM
COC(=O)Nc1ccc2c(c1)NC(=O)C(C)(C)CCC[C@H](c1ccc(-c3cc(Cl)ccc3-n3cc(C(F)F)cn3)c[n+]1[O-])c1nc-2c(C)[nH]1 = 6.5 µM
COC(=O)Nc1ccc2c(c1)NC(=O)C(C)(C)CCC[C@H](c1ccc(-c3cc(Cl)cnc3OC(F)F)c[n+]1[O-])c1nc-2c(C)[nH]1 = 0.18 µM

Now take the following compound into account.
COC(=O)Nc1ccc2c(c1)NC(=O)C(C)(C)CCC[C@H](c1ccc(-c3cc(F)ccc3-n3cc(C(F)(F)F)cn3)c[n+]1[O-])c1nc-2c(C)[nH]1 has a reported IC50 of > 10 µM

* * *

measurement.description: High-throughput (HT) solubility determination
Type: physicochemical
condition.parameters: kinetic from dmso stock; FaSSIF pH 6.5, 24 hours at 25° C.; read-out: pH 6.5 (FaSSIF) solubility
Description: The chromatographic system consists of an Agilent 1290 UPLC/DAD system and ChemStation software, both from Agilent Technologies, USA. The separations are carried out on a Supelco Ascentis Express C18, 30 mm×3.0 mm I.D., 2.7 μm HPLC column. […] Analyzed each standard and solubility solution by UPLC/DAD. The solubility value was calculated by the following equation: Solubility=(Peak area of sample/Peak area of standard)(Standard concentration)
measured.attribute: solubility kinetic at 24 h (µM)

COC(=O)Nc1ccc2c(c1)NC(=O)C(C)(C)CCC[C@H](c1ccc(-c3c(-n4cc(C(F)(F)F)cn4)ccc(F)c3F)c[n+]1[O-])c1nc-2c(C)[nH]1 = 36

1 = COC(=O)Nc1ccc2c(c1)NC(=O)C(C)(C)CCC[C@H](c1ccc(-c3cc(Cl)ccc3-n3cc(C(F)(F)F)cn3)c[n+]1[O-])c1nc-2c(C)[nH]1
2 = COC(=O)Nc1ccc2c(c1)NC(=O)C(C)(C)CCC[C@H](c1ccc(-c3cc(Cl)cnc3OC(F)F)c[n+]1[O-])c1nc-2c(C)[nH]1
Given the two records 1 and 2 , choose the one whose solubility kinetic at 24 h value is lower. Response format: the label of the selected entry.
1
(1: 27 µM, 2: 55 µM)

* * *

measurement.description: High-throughput (HT) solubility determination
Type: physicochemical
condition.parameters: kinetic from dmso stock; FaSSIF pH 6.5, 24 hours at 25° C.; read-out: pH 6.5 (FaSSIF) solubility
measured.attribute: solubility kinetic at 24 h (µM)

COC(=O)Nc1ccc2c(c1)NC(=O)C(C)(C)CCC[C@H](c1ccc(-c3cc(F)ccc3-c3cnn(C(F)(F)F)c3)c[n+]1[O-])c1nc-2c(C)[nH]1 [Example 5] = 50
COC(=O)Nc1ccc2c(c1)NC(=O)C(C)(C)CCC[C@H](c1ccc(-c3cc(Cl)ccc3-n3cc(C(F)F)cn3)c[n+]1[O-])c1nc-2c(C)[nH]1 [Example 4] = 44
COC(=O)Nc1ccc2c(c1)NC(=O)C(C)(C)CCC[C@H](c1ccc(-c3cc(F)ccc3-n3cc(C(F)(F)F)cn3)c[n+]1[O-])c1nc-2c(C)[nH]1 [Example 2] = 53
